- RUN_DESCRIPTION: protein stability index of a GFP-peptide fusion (yeast GPS) (PSI 1-4); higher = more stable; sorted into four equal gates, so the index is relative within each strain
- PARTICULARS: doa10∆
PROPERTY: protein stability index

# input Given the entry GSNYNPYFPGGSIAMAR [CYT1] , report its measured protein stability index.
# output 2.08

# input // query protein stability index value for entry EKLLRHVDSLIEDFVDG [SRB7]
# output 3.2

# input Item SVLYPDELEDDTLNETN [RRP43] has what recorded protein stability index?
# output 3

# input Fill in the blank: the reported protein stability index of EMVKDRGYFITQEEVEL [RPB5] is ____.
# output 2.62

# input Name the reported protein stability index value associated with the sequence DIKAAVDDSMELCGQIR [ITC1]
# output 2.65

# input So what's the measured protein stability index for this one? PDGVVVHRDDPALVGKL [SNF6]
# output 3.3

# input Given the entry YKVENVTLYWNNAKLLT [ESC2] , report its measured protein stability index.
# output 1.71

# input What protein stability index value was documented for this sequence, LHNFESVAPTKQREIVK [NUT1] ?
# output 2.71

# input Name the reported protein stability index value associated with the sequence NTLRKCYPQFAERDSQG [UBP6]
# output 2.92

# input Can you look up the measured protein stability index of TGAYIANRVTDKLTRVH [PRE3] for me?
# output 1.57

# input Would you kindly share the measured protein stability index for LSSGENRYAFSQPTNST [SMC4] ?
# output 3.22

# input Record request: protein stability index value, item ELHKEGTISKLENKENG [SMC2]
# output 2.01

# input sequence: ETATSERNASEVRDATL [GRR1] ; wanted: its protein stability index
# output 3.53

# input Tell me the measured protein stability index of THDGRTIRYPDPNIKVN [RPS4A] , please.
# output 1.52

# input Form field: reported protein stability index of CITKQDGFKIYDNEKTA [PUP2]
# output 2.85
